log10 IC50 reference
- Tested on: TNF-alpha production by PBMC
- method-notes: TNF-alpha assay, LPS-stimulated PBMC, sandwich ELISA
- Type: cell-based, human
- reported-conditions: Table 7; same conditions as example 26; read-out: TNFα IC50
Transform log10 | Measure IC50 | Unit µM

Sure, the documented log10 IC50 for `COc1ccc(-c2nc3c(=O)[nH]c(=O)n(C)c3nc2Br)cc1OC` is 0.00

Sure, the documented log10 IC50 for `Cn1c(=O)n(CCN2CCCC2)c(=O)c2nc(-c3ccccc3)c(Cl)nc21` is 0.87

Sure, the documented log10 IC50 for `CCn1c(=O)n(CCCC(=O)O)c(=O)c2nc(-c3ccccc3)c(Cl)nc21` is 0.92

Sure, the documented log10 IC50 for `CCOC(=O)CCCCn1c(=O)c2nc(-c3ccccc3)c(Cl)nc2n(C)c1=O` is 0.53
